The reported numbers originate from patent US20210130436A1.

TARGET OR SYSTEM: T1, human CTLA4 on CHO cells (human, UniProt P16410 36-223)
T1 construct: whole, on cells; CHO cells stably expressing CTLA4; also called huCTLA4
T1 sequence (P16410 36-223): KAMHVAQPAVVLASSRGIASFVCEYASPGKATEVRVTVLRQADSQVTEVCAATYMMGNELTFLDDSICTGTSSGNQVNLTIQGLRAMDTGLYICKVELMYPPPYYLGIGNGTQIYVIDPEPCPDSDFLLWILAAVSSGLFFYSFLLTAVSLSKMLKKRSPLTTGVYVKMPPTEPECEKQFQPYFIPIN
ASSAY INFO: flow cytometry, CHO cells stably expressing CTLA4
Here the recorded MFI at 33.3 nM is given for each entry.
Field: numeric (MFI). Do not append units.

Some solved entries appear below for comparison.
[
  {
    "BINDER": "variant CD80 IgV-Fc E35D/D46E/L85M (Fc fusion, not shown: a dimerising Fc or GST) VIHVTKEVKEVATLSCGHNVSVEELAQTRIYWQKDKKMVLTMMSGEMNIWPEYKNRTIFDITNNLSIVILALRPSDEGTYECVVMKYEKDAFKREHLAEVTLSVKAD",
    "MFI at 33.3 nM [MFI]": 30300
  },
  {
    "BINDER": "variant CD80 IgV-Fc E35D/M43I/D46E/A71G/L85M (Fc fusion, not shown: a dimerising Fc or GST) VIHVTKEVKEVATLSCGHNVSVEELAQTRIYWQKDKKMVLTMISGEMNIWPEYKNRTIFDITNNLSIVILGLRPSDEGTYECVVMKYEKDAFKREHLAEVTLSVKAD",
    "MFI at 33.3 nM [MFI]": 26900
  },
  {
    "BINDER": "variant CD80 IgV-Fc E35D/M43I/M47L/L85M (Fc fusion, not shown: a dimerising Fc or GST) VIHVTKEVKEVATLSCGHNVSVEELAQTRIYWQKDKKMVLTMISGDLNIWPEYKNRTIFDITNNLSIVILALRPSDEGTYECVVMKYEKDAFKREHLAEVTLSVKAD",
    "MFI at 33.3 nM [MFI]": 24600
  }
]

We next turn to a different binder, shown below.
For record variant CD80 IgV-Fc V22A/E35D/M47L/A71G (Fc fusion, not shown: a dimerising Fc or GST) VIHVTKEVKEVATLSCGHNVSAEELAQTRIYWQKDKKMVLTMMSGDLNIWPEYKNRTIFDITNNLSIVILGLRPSDEGTYECVVLKYEKDAFKREHLAEVTLSVKAD the listed MFI at 33.3 nM is 21900
